Where do these numbers come from? They come from ChEMBL document CHEMBL3137667.

For each record, write down the corresponding Hepatotoxicity (choleostasis).
run.parameters: human
// no unit, no text: just the number

The compound listed as CCOC(OCC)C(=O)OCC(=O)[C@]1(O)Cc2c(O)c3c(c(O)c2[C@@H](O[C@H]2C[C@H](N)[C@H](O)[C@H](C)O2)C1)C(=O)c1c(OC)cccc1C3=O [DETORUBICIN] has a reported Hepatotoxicity (choleostasis) of 0

The compound listed as CCOC(=O)C1=C[C@@H](OC(CC)CC)[C@H](NC(C)=O)[C@@H](N)C1 [OSELTAMIVIR] has a reported Hepatotoxicity (choleostasis) of 0

The compound listed as N[C@@H](C(=O)N[C@@H]1C(=O)N2C(C(=O)O)=C(Cl)CS[C@H]12)c1ccccc1 [CEFACLOR ANHYDROUS] has a reported Hepatotoxicity (choleostasis) of 2

The compound listed as O=C(O)Cc1cn(-c2ccccc2)nc1-c1ccc(Cl)cc1 [LONAZOLAC] has a reported Hepatotoxicity (choleostasis) of 0

The compound listed as Nc1cc([As]2[As](c3ccc(O)c(N)c3)[As](c3ccc(O)c(N)c3)[As](c3ccc(O)c(N)c3)[As]2c2ccc(O)c(N)c2)ccc1O.Nc1cc([As]2[As](c3ccc(O)c(N)c3)[As]2c2ccc(O)c(N)c2)ccc1O (configuration not stated) has a reported Hepatotoxicity (choleostasis) of 1

The compound listed as COC1=CC(=O)C[C@@H](C)[C@]12Oc1c(Cl)c(OC)cc(OC)c1C2=O [GRISEOFULVIN] has a reported Hepatotoxicity (choleostasis) of 2

The compound listed as C[S+](CC[C@H](N)C(=O)[O-])C[C@H]1O[C@@H](n2cnc3c(N)ncnc32)[C@H](O)[C@@H]1O (some centres not stated) [ADEMETIONINE] has a reported Hepatotoxicity (choleostasis) of 0

The compound listed as Cc1cnc(NCCCN(C)C)c2c1[nH]c1ccc3cc(O)ccc3c12 [INTOPLICINE] has a reported Hepatotoxicity (choleostasis) of 0

The compound listed as COC1=C(C(=O)O)N2C(=O)[C@@H](NC(=O)[C@H](N)C3=CCC=CC3)[C@H]2SC1 [CEFROXADINE] has a reported Hepatotoxicity (choleostasis) of 0

The compound listed as C=CCNc1nc(NCC=C)nc(N2CCN(C(c3ccc(F)cc3)c3ccc(F)cc3)CC2)n1 [ALMITRINE] has a reported Hepatotoxicity (choleostasis) of 0

The compound listed as CCOC(=O)[C@H](CCc1ccccc1)N[C@@H](C)C(=O)N1[C@H](C(=O)O)C[C@H]2CCCC[C@@H]21 [TRANDOLAPRIL] has a reported Hepatotoxicity (choleostasis) of 1

The compound listed as Nc1nc(O)c2ncn(COC(CO)CO)c2n1 [GANCICLOVIR] has a reported Hepatotoxicity (choleostasis) of 1

The compound listed as Cc1cc(O)c(C(=O)N[C@@H](C(=O)N[C@@H]2C(=O)N3C(C(=O)O)=C(CSc4nnnn4C)CS[C@H]23)c2ccc(O)cc2)cn1 [CEFPIRAMIDE] has a reported Hepatotoxicity (choleostasis) of 0

The compound listed as CCOC(=O)CN[C@@H](C(=O)N1CC[C@H]1C(=O)NCc1ccc(/C(N)=N\O)cc1)C1CCCCC1 [XIMELAGATRAN] has a reported Hepatotoxicity (choleostasis) of 0

The compound listed as C[C@@H]1[C@H](O)[C@@H](C)/C=C/C=C/C=C/C=C/C=C/C=C/C=C/[C@H](O[C@@H]2O[C@H](C)[C@@H](O)[C@H](N)[C@@H]2O)C[C@@H]2O[C@](O)(C[C@@H](O)C[C@@H](O)[C@H](O)CC[C@@H](O)C[C@@H](O)CC(=O)O[C@H]1C)C[C@H](O)[C@H]2C(=O)O [AMPHOTERICIN B] has a reported Hepatotoxicity (choleostasis) of 7

The compound listed as COc1ccc2c(c1)N(C[C@H](C)CN(C)C)c1ccccc1S2 [LEVOMEPROMAZINE] has a reported Hepatotoxicity (choleostasis) of 3

The compound listed as C[C@]12C=CC(=O)C=C1CC[C@@H]1[C@@H]2CC[C@@]2(C)[C@H]1CC[C@]2(C)O (stereo in doubt; form 2) [METHANDROSTENOLONE] has a reported Hepatotoxicity (choleostasis) of 1

The compound listed as CCOC(=O)/C=C(C)/C=C/C=C(C)/C=C/c1c(C)cc(OC)c(C)c1C [ETRETINATE] has a reported Hepatotoxicity (choleostasis) of 6

The compound listed as CC(=O)[C@H]1CC[C@H]2[C@@H]3CCC4=CC(=O)CC[C@]4(C)[C@H]3CC[C@]12C [PROGESTERONE] has a reported Hepatotoxicity (choleostasis) of 1

The compound listed as C[C@H](CCC(=O)O)[C@H]1CC[C@H]2[C@@H]3[C@H](O)C[C@@H]4C[C@H](O)CC[C@]4(C)[C@H]3CC[C@]12C [CHENODIOL] has a reported Hepatotoxicity (choleostasis) of 2

The compound listed as O=c1ccc2ccccc2o1 [COUMARIN] has a reported Hepatotoxicity (choleostasis) of 1

The compound listed as C[C@]12CC[C@@H]3c4ccc(OC(=O)N(CCCl)CCCl)cc4CC[C@H]3[C@@H]1CC[C@@H]2O [ESTRAMUSTINE] has a reported Hepatotoxicity (choleostasis) of 0

The compound listed as NCCCC(N)(C(=O)O)C(F)F (configuration not stated) [EFLORNITHINE] has a reported Hepatotoxicity (choleostasis) of 0

The compound listed as CC(C)[C@](O)(C(=O)OCC1=CC[N+]2([O-])CC[C@@H](O)[C@@H]12)[C@H](C)O (some centres not stated) [INDICINE N-OXIDE] has a reported Hepatotoxicity (choleostasis) of 0

The compound listed as C=CC[C@@H]1/C=C(\C)C[C@H](C)C[C@H](OC)[C@H]2O[C@@](O)(C(=O)C(=O)N3CCCC[C@H]3C(=O)O[C@H](/C(C)=C/[C@@H]3CC[C@@H](O)[C@H](OC)C3)[C@H](C)[C@@H](O)CC1=O)[C@H](C)C[C@@H]2OC [TACROLIMUS ANHYDROUS] has a reported Hepatotoxicity (choleostasis) of 0

The compound listed as `C/C=C(/CC)C(=O)NC(N)=O` has a reported Hepatotoxicity (choleostasis) of 0

The compound listed as C[C@H]1O[C@@H](O[C@H]2[C@@H](O)C[C@H](O[C@H]3[C@@H](O)C[C@H](O[C@H]4CC[C@@]5(C)[C@H](CC[C@@H]6[C@@H]5C[C@@H](O)[C@]5(C)[C@@H](C7=CC(=O)OC7)CC[C@]65O)C4)O[C@@H]3C)O[C@@H]2C)C[C@H](O)[C@@H]1O [DIGOXIN] has a reported Hepatotoxicity (choleostasis) of 0

----------
For each record, write down the corresponding Hepatotoxicity (granulomatous hepatitis).
run.parameters: human
// no unit, no text: just the number

The compound listed as `CC1(C)S[C@@H]2[C@H](NC(=O)Cc3ccccc3)C(=O)N2[C@H]1C(=O)O` has a reported Hepatotoxicity (granulomatous hepatitis) of 3

The compound listed as `O=C(O)CCc1nc(-c2ccccc2)c(-c2ccccc2)o1` has a reported Hepatotoxicity (granulomatous hepatitis) of 0

The compound listed as `O=C(Cc1cccs1)N[C@@H]1C(=O)N2C(C(=O)[O-])=C(C[n+]3ccccc3)CS[C@H]12` has a reported Hepatotoxicity (granulomatous hepatitis) of 0

The compound listed as `O=C(N[C@H](CO)[C@H](O)c1ccc([N+](=O)[O-])cc1)C(Cl)Cl` has a reported Hepatotoxicity (granulomatous hepatitis) of 0

The compound listed as CC(=O)CC(c1ccccc1)c1c(O)c2ccccc2oc1=O (configuration not stated) has a reported Hepatotoxicity (granulomatous hepatitis) of 0

The compound listed as `c1cnc(N2CCN(Cc3ccc4c(c3)OCO4)CC2)nc1` has a reported Hepatotoxicity (granulomatous hepatitis) of 0

The compound listed as CC1CN(c2cc3c(cc2F)c(=O)c(C(=O)O)cn3-c2ccc(F)cc2F)CCN1 (configuration not stated) has a reported Hepatotoxicity (granulomatous hepatitis) of 0

The compound listed as CCc1ccc(CCOc2ccc(CC3SC(=O)NC3=O)cc2)nc1 (configuration not stated) has a reported Hepatotoxicity (granulomatous hepatitis) of 0

The compound listed as CCC(C)n1ncn(-c2ccc(N3CCN(c4ccc(OC[C@H]5CO[C@](Cn6cncn6)(c6ccc(F)cc6F)O5)cc4)CC3)cc2)c1=O (some centres not stated) has a reported Hepatotoxicity (granulomatous hepatitis) of 0

The compound listed as `CCc1oc2ccccc2c1C(=O)c1ccc(O)cc1` has a reported Hepatotoxicity (granulomatous hepatitis) of 0

The compound listed as NC1=NC(=O)C(c2ccccc2)O1 (configuration not stated) has a reported Hepatotoxicity (granulomatous hepatitis) of 0

The compound listed as CCN(CC)CCNC(=O)c1ccc(N)cc1 [PROCAINAMIDE] has a reported Hepatotoxicity (granulomatous hepatitis) of 4

The compound listed as `O=c1cc(Cc2ccccc2)[nH]c(=S)[nH]1` has a reported Hepatotoxicity (granulomatous hepatitis) of 0

The compound listed as CCOC(=O)OC(C)OC(=O)[C@@H]1N2C(=O)[C@@H](/N=C/N3CCCCCC3)[C@H]2SC1(C)C (some centres not stated) has a reported Hepatotoxicity (granulomatous hepatitis) of 0

The compound listed as `CCC1=C[C@@H]2CN(C1)Cc1c([nH]c3ccccc13)[C@@](C(=O)OC)(c1cc3c(cc1OC)N(C)[C@H]1[C@@](O)(C(=O)OC)[C@H](OC(C)=O)[C@]4(CC)C=CCN5CC[C@]31[C@@H]54)C2` has a reported Hepatotoxicity (granulomatous hepatitis) of 0

The compound listed as Cc1ccccc1N1C(=O)c2cc(S(N)(=O)=O)c(Cl)cc2NC1C (configuration not stated) has a reported Hepatotoxicity (granulomatous hepatitis) of 1

The compound listed as `Nc1nc2[nH]cc(CCc3ccc(C(=O)N[C@@H](CCC(=O)O)C(=O)O)cc3)c2c(=O)[nH]1` has a reported Hepatotoxicity (granulomatous hepatitis) of 0
